assay.comment: in vitro
particulars: rabbit
Threshold-based label: CC50 under 10 µM gives y, CC50 not under 10 µM gives n.

A record lists Cc1nc(-c2ccc(C3N(C)c4ccc(F)cc4C(=O)N3c3cccc(O)c3)s2)cs1 (stereo not drawn) [Compound C] . Is its CC50 below 10 µM? y

Proceed to Cc1nc(-c2ccc(C3N(C)c4ccc(F)cc4C(=O)N3c3c(O)cccc3O)s2)cs1 (stereo not drawn) [Compound 1] n

Proceed to Cc1nc(-c2ccc(C3N(C)c4ccc(F)cc4C(=O)N3c3cccc(O)c3O)s2)cs1 (stereo not drawn) [Compound E] y

Proceed to Cc1nc(-c2ccc(C3N(C)c4ccc(F)cc4C(=O)N3c3cc(O)ccc3O)s2)cs1 (stereo not drawn) [Compound G] n

Proceed to Cc1nc(-c2ccc(C3N(C)c4ccc(F)cc4C(=O)N3c3ccccc3O)s2)cs1 (stereo not drawn) [Compound B] n

Proceed to Cc1nc(-c2ccc(C3N(C)c4ccc(F)cc4C(=O)N3c3cc(O)cc(O)c3)s2)cs1 (stereo not drawn) [Compound I] n
